assayOverview: protein stability index of a GFP-peptide fusion (GPS, HEK-293T) (PSI 1-6); higher = more stable;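 note: 24-mer peptide tiles fused after GFP, lentivirally expressed, FACS-sorted into six equal bins by GFP/DsRed ratio, decoded by Illumina sequencing, PSI is the read-weighted mean bin number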
appliedConditions: treatment: MLN4924 1 uM, 8 h; c terminus: a fixed tail appended
Binary call on protein stability index: met from 4 upward, not met beneath that.

query: I'd appreciate it if you could say whether KCLKFLGSRHPTLVLPLVPELLST [INTS4] has protein stability index at least equal to 4.
result: not met

query: Quick check, protein stability index >= 4? ESDPSDPNKDMVVQLIDDFKISGM [SRPK2]
result: met

query: Assess whether reported protein stability index for TYLENKGHRYPCFFNTLHVGGTIR [POP5] sits at 4 or higher.
result: not met

* * *

assayOverview: protein stability index of a GFP-peptide fusion (GPS, HEK-293T) (PSI 1-6); higher = more stable
appliedConditions: treatment: DMSO; c terminus: a fixed tail appended
Returns one of y or n; y when protein stability index is >= 4.

query: # check: protein stability index of EMLTGQERVALANRKRECGNAHYQ [FKBP8] is greater than or equal to 4
result: n

query: I'd appreciate it if you could say whether TAIRQLTEPSGRVAKKTPTKRSTL [C2CD2L] has protein stability index at least equal to 4.
result: y

New cases:
query: # check: protein stability index of VLKVLSVCSSNKPAIVEAGGMQAL [CTNNB1] is greater than or equal to 4
result: n

query: Entry NREVATNSELVQSGKSEISELRRT [KRT17] : is its protein stability index no less than 4?
result: y

query: Does VTLAAHFLGLGAPNCLSMGSRCLK [ZBED1] have a reported protein stability index of at least 4?
result: n

query: Threshold query (protein stability index >= 4) on RILDELTLCKADLEAQVESLKEEL [KRT36]
result: n

query: Is it the case that LPPDALIIEYRGKFMLREQFEANG [KMT2E] has protein stability index reaching or exceeding 4?
result: n

query: Assess whether reported protein stability index for VCQEVLERSRDVVDEVSVSLRLWD [RHOBTB1] sits at 4 or higher.
result: n

query: Hi team, for ASTPTPDDKLFQKLAKVYSYAHGW [CPN1] , is the recorded protein stability index at or above 4?
result: n

* * *

assayOverview: protein stability index of a GFP-peptide fusion (GPS, HEK-293T) (PSI 1-6); higher = more stable
appliedConditions: treatment: MLN4924 1 uM, 8 h; c terminus: a fixed tail appended
Classify as follows. Reported protein stability index greater than or equal to 3: true. Reported protein stability index below: false.

query: Textbook exercise: given the entry LMGEIAKATFMYEQFPELMNMLWS [CLINT1] , state whether its protein stability index is greater than or equal to 3.
result: false

Next:
query: Form field: protein stability index at least 3? Entry: YRFRMKCHLCVNYIEMQTDPANCD [YJU2B]
result: false

query: Decide: is the reported value of protein stability index for SPDLEWHAACLKCAECSQYLDETC [ISL2] equal to or greater than 3?
result: true

query: Hello, I need to know if YTSPDKLKDIFMFITRQLKGLEDT [PDS5B] has measured protein stability index not below 3. Thanks!
result: true

query: Would you say NREVATNSELVQSGKSEISELRRT [KRT17] shows protein stability index at minimum 3?
result: true

query: For this sequence, is measured protein stability index 3 or higher? PDSFYELKSQPLPLRSSLPISLQA [TFE3]
result: true

query: Evaluate AFADTHSCRELLRIADKFTQHNFQ [KLHL20] : protein stability index at minimum 3?
result: false

query: Tell me whether protein stability index is at least 3 here: ATRVAPERLFGSAANVVSAKRNRL [ZBED1]
result: true

query: Say whether SSLLAPAKHLIASMLSKNPEDRPS [PLK2] shows protein stability index of 3 or more.
result: true

query: Hello, I need to know if KIYFTDSSSKWQRRDYLLLVMEGT [APMAP] has measured protein stability index not below 3. Thanks!
result: false

query: Dear colleague, could you confirm whether APLQSVFQGQKTELNNCISMLVAG [TRIM63] has protein stability index at or above 3?
result: false

The origin of these recorded values is the supplement of paper PMC10567573.
